# composite z-score per entry
# test: small-molecule microarray binders of probe aEGFR, primary screen, biochemical, biotinylated probe, 635/667 nm fluorescence (AID 1097);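 also: probe is a biotinylated anti-EGFR antibody binding compounds printed on slides; score combines fluorescence near 667 nm and signal to noise of each spot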
# measurementSetup: higher = more signal

[
  {
    "compound": "CCOC(=O)C1=CC[C@@H](c2ccccc2)N(S(=O)(=O)c2ccc(C)cc2)[C@H]1C(=O)OCC",
    "composite z-score": 0.202
  },
  {
    "compound": "[N-]=[N+]=NCc1ccccc1C[C@]1(C(=O)O)N=C(c2ccc(OCCCO)cc2)O[C@H]1c1ccccc1CN=[N+]=[N-]",
    "composite z-score": 0.0617
  },
  {
    "compound": "CC(C)CNC(=O)[C@@]1(c2ccc([N+](=O)[O-])cc2)CC(=O)N(CC23CC4CC(CC(C4)C2)C3)[C@@H]1c1ccc(CO)cc1",
    "composite z-score": -0.0897
  },
  {
    "compound": "CC(C)C(=C=CC[C@H](O)c1cccc(OCCO)c1)C[C@H](O)COCc1ccccc1",
    "composite z-score": -0.081
  },
  {
    "compound": "CCCCC(CC)C(O)C1C=CC2C(=O)N(c3ccccc3)C(=O)C2N1Nc1ccccc1 (stereo not given)",
    "composite z-score": 0.0276
  },
  {
    "compound": "CCOC(=O)[C@H]1C/C=C/C[C@H](C(=O)OCC)C(=O)O[C@H]2[C@@H](OC)O[C@H](CO)[C@@H](OC(=O)Nc3ccc4c(c3)OCO4)[C@@H]2OC1=O",
    "composite z-score": -0.071
  },
  {
    "compound": "C=C(COC)C(=O)CC[C@@H](OC(=O)c1cccnc1)c1ccc(CO)o1",
    "composite z-score": -0.137
  },
  {
    "compound": "C=CCNC(=O)[C@@H]1[C@H]2C(=O)O[C@H](c3ccccc3)[C@H](c3ccccc3)N2[C@H](c2ccc(O)cc2)[C@@]12C(=O)N(C(=O)OCCOC)c1ccccc12",
    "composite z-score": -0.14
  },
  {
    "compound": "CC(=O)Nc1cc(Br)ccc1C(=O)O",
    "composite z-score": -0.156
  },
  {
    "compound": "O=C1C[C@@](C(=O)NC2CC2)(c2ccc([N+](=O)[O-])cc2)[C@@H](c2ccc(CO)cc2)N1CC12CC3CC(CC(C3)C1)C2",
    "composite z-score": -0.0485
  },
  {
    "compound": "CC(C)(C)OC(=O)CC[C@]1(C(=O)N2CCCCC2)N=C(c2ccc(OCCCO)cc2)O[C@H]1c1ccccc1N=[N+]=[N-]",
    "composite z-score": 0.872
  },
  {
    "compound": "O=C(OCCF)C1=CCC(c2cccc(Cl)c2)O1 (stereo not given)",
    "composite z-score": -0.0121
  },
  {
    "compound": "C=CC[C@@]1(C(=O)NCC(O)CO)N=C(c2ccc(OCCCO)cc2)O[C@@H]1c1ccccc1N=[N+]=[N-] (stereo not given in full)",
    "composite z-score": 0.0376
  },
  {
    "compound": "Cc1cc(C)cc(N2C(=O)CS(=O)(=O)C2c2cccc([N+](=O)[O-])c2)c1 (stereo not given)",
    "composite z-score": 0.477
  },
  {
    "compound": "CCOC(=O)C1=C[C@@H](C(C)C)N(S(=O)(=O)c2ccc(C)cc2)[C@H]1c1ccc(C(C)C)cc1",
    "composite z-score": -0.0381
  },
  {
    "compound": "Cc1ccc(S[C@]2(C(=O)NCC(C)C)CC(=O)N(Cc3ccccc3Cl)[C@@H]2c2ccc(CO)cc2)cc1",
    "composite z-score": -0.228
  },
  {
    "compound": "COCCCNC(=O)[C@@]1(C)c2ccccc2C(=O)N(Cc2cc(C(F)(F)F)cc(C(F)(F)F)c2)[C@H]1c1ccc(CO)cc1",
    "composite z-score": -0.26
  },
  {
    "compound": "O=C/C=C/c1ccc2c(c1)OCO2",
    "composite z-score": -0.0978
  },
  {
    "compound": "C=CCC(OC(C)=O)[C@@H]1[C@@H](N(Cc2ccc(-c3ccccc3)cc2)C(=O)Cc2ccc(OC)cc2)c2cc(OCCCO)ccc2N1C(=O)c1ccc2ccccc2n1 (stereo not given in full)",
    "composite z-score": -0.0784
  },
  {
    "compound": "CCOC(=O)C[C@H]1[C@H](OC(=O)Cc2ccc3c(c2)OCO3)[C@@H](NC(=O)c2ccc(-c3ccccc3)cc2)c2cc(OCCCO)ccc2N1C(=O)c1ccccc1",
    "composite z-score": 0.0027
  },
  {
    "compound": "[N-]=[N+]=NCc1ccccc1C[C@@]1(C(=O)NCC(O)CO)N=C(c2ccc(OCCCO)cc2)O[C@@H]1c1ccccc1CN=[N+]=[N-] (stereo not given in full)",
    "composite z-score": -0.197
  },
  {
    "compound": "CCN(CC)c1ccc(N2CC=CC34O[C@@H]5/C=C\\CCCOC(=O)C5[C@H]3C(=O)N(C(CO)C(C)C)[C@@H]4C2=O)cc1 (stereo not given in full)",
    "composite z-score": -0.198
  },
  {
    "compound": "Cc1ccc([C@H]2C(C(=O)O)=C[C@@H](C)N2S(=O)(=O)c2ccc(C)cc2)cc1",
    "composite z-score": -0.165
  },
  {
    "compound": "COCCOC(=O)N1C(=O)[C@@]2(c3cc(C#CCNC(N)=O)ccc31)[C@H](C(=O)N1CCN(c3ncccn3)CC1)[C@H]1C(=O)O[C@H](c3ccccc3)[C@H](c3ccccc3)N1[C@@H]2c1ccccc1OCCO",
    "composite z-score": -0.0286
  },
  {
    "compound": "CCOC(=O)C1=CCC(c2ccc(C#N)cc2)N(S(=O)(=O)c2ccc(C)cc2)C1 (stereo not given)",
    "composite z-score": -0.0297
  },
  {
    "compound": "COCCOC(=O)N1C(=O)[C@@]2(c3cc(C#Cc4ccc(OC)cc4)ccc31)[C@H](C(=O)N1CCN(c3ncccn3)CC1)[C@H]1C(=O)O[C@H](c3ccccc3)[C@H](c3ccccc3)N1[C@@H]2c1ccc(O)cc1",
    "composite z-score": -0.0978
  },
  {
    "compound": "CC(C)NC(=O)[C@@H]1c2ccccc2C(=O)N(Cc2ccccc2Cl)[C@H]1c1ccc(CO)cc1",
    "composite z-score": -0.287
  },
  {
    "compound": "COc1cc2c(cc1OC)CN(C(=O)[C@@H]1[C@H]3C(=O)O[C@H](c4ccccc4)[C@H](c4ccccc4)N3[C@H](c3ccccc3OCCO)[C@@]13C(=O)Nc1ccc(C#CCNC(N)=O)cc13)CC2",
    "composite z-score": -0.0873
  },
  {
    "compound": "COC(=O)c1ccc(C(O)C2C=CC3C(=O)N(c4ccccc4)C(=O)C3N2Nc2ccc(C#N)cc2)o1 (stereo not given)",
    "composite z-score": -0.0446
  },
  {
    "compound": "C=C(CCCC)/C(=C/C[C@H](OC(C)=O)c1ccc(CO)o1)c1cnc2ccccc2c1",
    "composite z-score": 0.0324
  }
]
